tested on: durch PAF induzierte Aggregation von Humanthrambozyten; assay: Inhibition of PAF-induced platelet aggregation in vitro (Born and Cross method); assay type: cell-based; settings: Homo sapiens, read-out: IK50-Wert PAF
Returns: string. Value is 1.0 if measured IC50 is below 400 nM, and 0.0 if it is greater than or equal to it.

* CCOC(=O)CCCOc1ccc2c(c1)C(c1ccccc1Cl)=NCc1nnc(C)n1-2 | 0.0
* Cc1nnc2n1-c1ccc(OCCN3C(=O)c4ccccc4C3=O)cc1C(c1ccccc1Cl)=NC2 [(e)] | 1.0

I'd appreciate it if you could check whether Cc1nnc2n1-c1ccc(OCCCN3CCOCC3)cc1C(c1ccccc1)=NC2 has IC50 smaller than 400 nM.
1.0

Determine whether this compound shows IC50 lower than 400 nM (ties excluded): Cc1nnc2n1-c1ccc(C(=O)NCCN3CCOCC3)cc1C(c1ccccc1Cl)=NC2
0.0

Lab note: IC50 threshold 400 nM. Does this compound come in strictly under it? Cc1nnc2n1-c1ccc(C(=O)OCCCN(C)C)cc1C(c1ccccc1Cl)=NC2
0.0

Decide: IC50 of Cc1nnc2n1-c1ccc(OCCN3CCOCC3)cc1C(c1ccccc1Cl)=NC2 strictly below 400 nM?
1.0

Hello, is IC50 of the following compound strictly smaller than 400 nM? Cc1nnc2n1-c1ccc(Cl)cc1C(c1ccccc1Cl)=NC2 [Triazolam, reference compound]
0.0

Check if IC50 falls below 400 nM for Cc1nnc2n1-c1ccc(OCC(=O)NC3CCN(C)CC3)cc1C(c1ccccc1Cl)=NC2 .
0.0

Hello, I'm reviewing records and need to know if IC50 of Cc1nnc2n1-c1ccc(Cl)cc1C(c1ccccc1)=NC2 [Alprazolam, reference compound] is below 400 nM. Could you check?
0.0

Quick check: does Cc1nnc2n1-c1ccc(OCc3cccnc3)cc1C(c1ccccc1)=NC2 have IC50 under 400 nM?
1.0

Does the reported IC50 of the following compound sit strictly below 400 nM? Cc1cnc2n1-c1ccc(OCCCN3CCOCC3)cc1C(c1ccccc1)=NC2
1.0

Here's an entry: Cc1cnc2n1-c1ccc(OCc3cccnc3)cc1C(c1ccccc1)=NC2 (atropisomer, axis not shown) . Is its IC50 below 400 nM?
1.0

---

Recorded IC50, one value per entry.
biological target: Flunitrazopam-Bindungstest; test: Flunitrazepam binding test (FNB); conditions: read-out: IK50-Wert FNB

* Cc1nnc2n1-c1ccc(OCc3cccnc3)cc1C(c1ccccc1)=NC2 [(k)] | 1420 nM

Reported IC50, compound Cc1nnc2n1-c1ccc(C3=NC(C)(C)CO3)cc1C(c1ccccc1Cl)=NC2 [(f)] : ____
800 nM

Entry Cc1cnc2n1-c1ccc(OCCCN3CCOCC3)cc1C(c1ccccc1)=NC2 [(l)] has what IC50?
> 5000 nM

Look up IC50: Cc1nnc2n1-c1ccc(OCCCN3CCOCC3)cc1C(c1ccccc1)=NC2 [(j)]
> 5000 nM

---

Recorded IC50 values for a group of compounds are listed next.
test system: durch PAF induzierte Aggregation von Humanthrambozyten; assay: Inhibition of PAF-induced platelet aggregation in vitro (Born and Cross method); type: cell-based; conditions: Homo sapiens, read-out: IK50-Wert PAF
Give the number; nM is assumed, so skip it.

These recorded examples may help you get a feel for the data.
- Cc1nnc2n1-c1ccc(OCCN3CCOCC3)cc1C(c1ccccc1Cl)NC2 (stereo not drawn): 400
- Cc1nnc2n1-c1ccc(OCC(=O)NCC(C)C)cc1C(c1ccccc1Cl)=NC2: 400

API: the following record is the query input.
What value of IC50 has been recorded for this entry: Cc1nnc2n1-c1ccc(C3=NC(C)(C)CO3)cc1C(c1ccccc1Cl)=NC2
400

---

biological target: Flunitrazopam-Bindungstest; assay: Flunitrazepam binding test (FNB); details: read-out: IK50-Wert FNB
pIC50: −log10 of the molar value.
Output yes (1) for pIC50 not less than 7; output no (0) otherwise.

Here are 3 compounds together with their reported answers.
- CCOC(=O)CCCOc1ccc2c(c1)C(c1ccccc1Cl)=NCc1nnc(C)n1-2: no (0)
- Cc1nnc2n1-c1ccc(Cl)cc1C(c1ccccc1Cl)=NC2 [Triazolam, reference compound]: yes (1)
- Cc1nnc2n1-c1ccc(C(=O)NCCN3CCOCC3)cc1C(c1ccccc1Cl)=NC2: no (0)

Please indicate if the recorded pIC50 for Cc1nnc2n1-c1ccc(OCCN3CCOCC3)cc1C(c1ccccc1Cl)NC2 (centres unmarked) meets or exceeds 7.
no (0)

Evaluate Cc1nnc2n1-c1ccc(OCC(=O)NCC(C)C)cc1C(c1ccccc1Cl)=NC2 : pIC50 at minimum 7?
yes (1)

In plain terms: is recorded pIC50 at least 7 for Cc1nnc2n1-c1ccc(OCCN3CCOCC3)cc1C(c1ccccc1Cl)=NC2 ?
no (0)

Is the recorded value of pIC50 equal to or greater than 7 for this compound? Cc1nnc2n1-c1ccc(Cl)cc1C(c1ccccc1)=NC2 [Alprazolam, reference compound]
yes (1)

hey, is pIC50 for this one >= 7? Cc1nnc2n1-c1ccc(OCC(=O)NC3CCN(C)CC3)cc1C(c1ccccc1Cl)=NC2
no (0)
